# assayDetails: Inhibition of HCV NS3 protease assessed as hydrolysis of chromogenic 4-phenylazophenyl ester from peptide fragment Ac-DTEDVVP(Nva)-O-4-PAP by spectrophotometry
# Parameters: species or system Hepacivirus hominis
pKi: −log10 of the molar value.
experimentalEndpoint: pKi

Field: example entries. Status: answers known.
compound	numericResult
CC[C@H](NC(=O)[C@@H]1[C@@H]2[C@H](CN1C(=O)[C@@H](NC(=O)NC(C)(C)C)C(C)(C)C)C2(C)C)B1O[C@@H]2C[C@@H]3C[C@@H](C3(C)C)[C@]2(C)O1	6.30
CN(C[C@@H](NC(=O)N[C@H](C(=O)N1C[C@H]2[C@@H]([C@H]1C(=O)N[C@@H](CC1CCC1)B(O)O)C2(C)C)C(C)(C)C)C(C)(C)C)S(C)(=O)=O	9.70
CC(C)(C)NC(=O)N[C@H](C(=O)N1C[C@H]2[C@@H](C1C(=O)N[C@@H](CC1CCC1)B1O[C@@H]3C[C@@H]4C[C@@H](C4(C)C)[C@]3(C)O1)C2(C)C)C(C)(C)C (some centres undefined)	8.00
CC(C)(C)NC(=O)N[C@H](C(=O)N1C[C@H]2[C@@H]([C@H]1C(=O)NC(CC1CCC1)C(=O)C(N)=O)C2(C)C)C(C)(C)C (some centres undefined) [BOCEPREVIR]	7.85
CC[C@H](NC(=O)[C@@H]1[C@@H]2[C@H](CN1C(=O)[C@@H](NC(=O)N[C@H](CN(C)S(C)(=O)=O)C(C)(C)C)C(C)(C)C)C2(C)C)B1O[C@@H]2C[C@@H]3C[C@@H](C3(C)C)[C@]2(C)O1	7.47

P = CC[C@H](NC(=O)C1[C@@H]2[C@H](CN1C(=O)[C@@H](NC(=O)NC(C)(C)C)C(C)(C)C)C2(C)C)B1O[C@@H]2C[C@@H]3C[C@@H](C3(C)C)[C@]2(C)O1 (some centres undefined)
Q = CC[C@H](NC(=O)[C@@H]1[C@@H]2[C@H](CN1C(=O)[C@@H](NC(=O)NC(C)(C)C)C(C)(C)C)C2(C)C)B(O)O
R = CC[C@H](NC(=O)[C@@H]1[C@@H]2[C@H](CN1C(=O)[C@@H](NC(=O)N[C@H](CN(C)S(C)(=O)=O)C(C)(C)C)C(C)(C)C)C2(C)C)B(O)O
S = CN(C[C@@H](NC(=O)N[C@H](C(=O)N1C[C@H]2[C@@H]([C@H]1C(=O)N[C@@H](CC1CCC1)B1O[C@@H]3C[C@@H]4C[C@@H](C4(C)C)[C@]3(C)O1)C2(C)C)C(C)(C)C)C(C)(C)C)S(C)(=O)=O
Exercise: Hey, quick one: sort these by pKi, low to high? Reply with the labels, ordered as the question asks.
Solution: P, R, Q, S
(P: 6.42, R: 7.28, Q: 8.00, S: 9.30)

Data credit: ChEMBL document CHEMBL1139280
